VcSialidase (Vibrio cholerae serotype O1): recorded IC50 for assorted molecules
Sequence (P0C6E9 25-781): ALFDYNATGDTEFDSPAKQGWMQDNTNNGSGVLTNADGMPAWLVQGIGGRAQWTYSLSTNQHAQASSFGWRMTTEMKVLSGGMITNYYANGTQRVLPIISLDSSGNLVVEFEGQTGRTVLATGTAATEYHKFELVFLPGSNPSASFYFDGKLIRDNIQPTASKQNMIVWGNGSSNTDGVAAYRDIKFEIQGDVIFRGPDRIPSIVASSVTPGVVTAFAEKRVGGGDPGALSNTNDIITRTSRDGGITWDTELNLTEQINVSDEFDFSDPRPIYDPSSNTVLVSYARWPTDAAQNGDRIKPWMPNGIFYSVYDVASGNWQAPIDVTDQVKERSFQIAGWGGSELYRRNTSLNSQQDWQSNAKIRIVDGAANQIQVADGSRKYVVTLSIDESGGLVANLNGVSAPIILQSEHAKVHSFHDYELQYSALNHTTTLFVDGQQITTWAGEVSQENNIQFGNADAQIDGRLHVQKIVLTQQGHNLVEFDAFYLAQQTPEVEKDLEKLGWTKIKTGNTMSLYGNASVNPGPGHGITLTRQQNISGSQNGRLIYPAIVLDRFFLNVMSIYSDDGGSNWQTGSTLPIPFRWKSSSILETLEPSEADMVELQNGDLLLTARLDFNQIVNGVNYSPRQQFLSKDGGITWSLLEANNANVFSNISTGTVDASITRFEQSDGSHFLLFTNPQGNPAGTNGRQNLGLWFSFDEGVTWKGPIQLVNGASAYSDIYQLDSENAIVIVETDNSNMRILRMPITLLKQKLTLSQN

**Q:** Bench note: what IC50 did `O=C(N[C@H]1[C@H]2O[C@@](C(=O)O)(C[C@@H]1O)O[C@@H]2[C@H](O)CO)C(F)(F)F` show?
**A:** 500 to 1000 µM

**Q:** Thanks! And `O=C(O)[C@@]12C[C@@H](O)[C@@H](NC3CCCCC3)C(O1)[C@@H]([C@H](O)CO)O2` ?
**A:** > 1000 µM

* * *

# measuredOn: BiNanH2 (Bifidobacterium longum subsp. infantis, UniProt A0ACD7UU12)
# Sequence (A0ACD7UU12 entry or part of it): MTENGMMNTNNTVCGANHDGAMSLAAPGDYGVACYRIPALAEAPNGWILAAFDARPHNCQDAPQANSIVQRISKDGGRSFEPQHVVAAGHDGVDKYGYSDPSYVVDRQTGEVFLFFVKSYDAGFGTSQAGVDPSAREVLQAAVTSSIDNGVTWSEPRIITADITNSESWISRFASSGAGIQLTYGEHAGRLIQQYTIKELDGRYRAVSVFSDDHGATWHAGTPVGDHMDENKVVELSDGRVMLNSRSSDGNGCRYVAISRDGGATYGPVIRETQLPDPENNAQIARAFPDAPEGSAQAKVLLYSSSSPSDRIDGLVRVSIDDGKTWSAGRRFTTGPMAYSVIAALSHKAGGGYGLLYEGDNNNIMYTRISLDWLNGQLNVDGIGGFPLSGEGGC
# methodDescription: Sialidase inhibition assay (Example 7)
# Format: biochemical
# setupConditions: pH 5, read-out: Percentage inhibition (%) against BiNanH2
Examples of molecules with documented inhibition at 1000 µM follow.
Express the result in % but write the number alone.

Below are worked cases with known answers.
molecule | propertyMeasured | unitAbbrev | assayValue
N[C@H]1[C@H]2O[C@@](C(=O)O)(C[C@@H]1O)O[C@@H]2[C@H](O)CO | inhibition at 1000 µM | % | 3.2
CC(=O)N[C@H]1[C@H]2O[C@@](C(=O)O)(C[C@@H]1O)O[C@@H]2[C@H](O)CO | inhibition at 1000 µM | % | 6.6
CC(=O)N[C@H]1[C@H]([C@H](O)[C@H](O)CO)OC(C(=O)O)=C[C@@H]1O [compound 6, reference compound] | inhibition at 1000 µM | % | 95.3

**Q:** Bench note: what inhibition at 1000 µM did `O=C(O)[C@@]12C[C@@H](O)[C@@H](NC3CCCCC3)C(O1)[C@@H]([C@H](O)CO)O2` show?
**A:** 1.2

**Q:** Thanks! And `O=C(N[C@H]1[C@H]2O[C@@](C(=O)O)(C[C@@H]1O)O[C@@H]2[C@H](O)CO)C(F)(F)F` ?
**A:** 3.8
